system_name: EGFR[T790M/C797S/L858R] (Homo sapiens, UniProt P00533, C797S/L858R/T790M)
Construct: purchased Carna Bio
Sequence (P00533 25-1210 T790M/C797S/L858R): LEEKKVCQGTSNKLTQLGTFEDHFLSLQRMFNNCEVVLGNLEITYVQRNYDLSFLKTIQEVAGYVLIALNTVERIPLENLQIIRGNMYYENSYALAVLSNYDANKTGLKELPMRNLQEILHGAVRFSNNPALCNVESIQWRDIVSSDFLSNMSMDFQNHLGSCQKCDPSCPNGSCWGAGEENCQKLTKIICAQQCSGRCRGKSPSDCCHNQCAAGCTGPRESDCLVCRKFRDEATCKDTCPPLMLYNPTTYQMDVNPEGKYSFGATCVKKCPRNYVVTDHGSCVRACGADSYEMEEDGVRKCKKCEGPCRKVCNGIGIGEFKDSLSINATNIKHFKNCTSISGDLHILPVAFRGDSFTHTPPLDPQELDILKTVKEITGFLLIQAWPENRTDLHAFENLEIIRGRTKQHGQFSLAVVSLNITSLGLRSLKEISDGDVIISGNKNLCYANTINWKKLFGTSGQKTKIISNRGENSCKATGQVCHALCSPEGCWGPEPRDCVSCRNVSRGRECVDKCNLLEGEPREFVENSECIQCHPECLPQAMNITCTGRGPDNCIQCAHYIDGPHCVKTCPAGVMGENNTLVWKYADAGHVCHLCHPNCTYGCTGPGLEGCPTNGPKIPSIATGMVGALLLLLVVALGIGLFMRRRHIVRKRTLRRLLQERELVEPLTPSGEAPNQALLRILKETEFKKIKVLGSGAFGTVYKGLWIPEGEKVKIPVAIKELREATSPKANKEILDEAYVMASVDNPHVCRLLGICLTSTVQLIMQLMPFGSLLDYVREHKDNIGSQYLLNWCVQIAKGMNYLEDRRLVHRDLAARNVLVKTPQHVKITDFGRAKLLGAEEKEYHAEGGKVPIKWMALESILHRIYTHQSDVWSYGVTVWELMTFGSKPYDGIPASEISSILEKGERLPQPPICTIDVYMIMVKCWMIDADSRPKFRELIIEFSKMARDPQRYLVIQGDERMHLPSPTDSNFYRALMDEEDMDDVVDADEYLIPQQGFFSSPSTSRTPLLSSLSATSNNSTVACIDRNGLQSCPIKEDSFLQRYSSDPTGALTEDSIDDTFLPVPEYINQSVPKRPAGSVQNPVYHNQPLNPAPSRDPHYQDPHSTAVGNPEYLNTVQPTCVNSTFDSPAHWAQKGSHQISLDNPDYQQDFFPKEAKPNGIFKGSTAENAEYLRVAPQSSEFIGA
assay_overview: Inhibition of EGFR[T790M/C797S/L858R] biochemical enzymatic activity (HTRF)
reported_conditions: EGFR T790M-C797S-L858R, 1 mM ATP, 1 h, room temperature, read-out: IC50 (nM) @T790M- C797S - L858R
Please respond with reported log10(IC50) for every item in the list.
Parameter value (number): base-10 log of IC50 in nM.

Problem: Reported log10(IC50), molecule CN1CC2(C1)CN(c1ccc3nc4n(c3c1)C13CCC(CN(CCOc5c(cnn5C)-c5cc(cn(C)c5=O)C(=O)N4)C1)C3)C2 (single isomer, unassigned) [Example A92B] : ____
Solution: 0.34

Problem: Reported log10(IC50), molecule `C[C@@H]1CCCOc2c(cnn2C)-c2cc(cn(C)c2=O)C(=O)Nc2nc3ccc(N4CCOCC4)cc3n2C1` : ____
Solution: 1.20

Problem: Reported log10(IC50), molecule `C[C@@H]1CCCOc2c(cnn2C)-c2cc(cn(C)c2=O)C(=O)Nc2nc3ccc(N4CC5(CCN(C)CC5(F)F)C4)cc3n2C1` : ____
Solution: 1.28

Problem: Reported log10(IC50), molecule `C[C@@H]1CCCOc2c(cnn2C)-c2cc(cn(C)c2=O)C(=O)Nc2nc3ccc(N4CC5(CCN(C)CC5)C4)cc3n2C1` : ____
Solution: 0.51

Problem: Reported log10(IC50), molecule Cn1ncc2c1OCCN1CC3CCC(C3)(C1)n1c(nc3ccc(N4CCC(N5CC(F)C5)CC4)cc31)NC(=O)c1cc-2c(=O)n(C)c1 (single isomer, unassigned) [Example A87B] : ____
Solution: 0.94

Problem: Reported log10(IC50), molecule `C[C@@H]1CCCOc2ccc(F)cc2-c2cc(cn(C)c2=O)C(=O)Nc2nc3ccc(N4CCN(C)CC4)cc3n2C1` : ____
Solution: 0.79

Problem: Reported log10(IC50), molecule `CCn1ncc2c1OCCC[C@@H](C)Cn1c(nc3ccc(N4CCN(C)CC4)cc31)NC(=O)c1cc-2c(=O)n(C)c1` : ____
Solution: 0.86

Problem: Reported log10(IC50), molecule Cn1ncc2c1OCCN1CC3CCC(C3)(C1)n1c(nc3ccc(N4CCOCC4)cc31)NC(=O)c1cc-2c(=O)n(C)c1 (single isomer, unassigned) [Example A62B] : ____
Solution: 0.63

Problem: Reported log10(IC50), molecule `CN(C)[C@H]1CCN(c2ccc3nc4n(c3c2)C23CCC(CC2)CN(CCOc2c(cnn2C)-c2cc(cn(C)c2=O)C(=O)N4)C3)C1` : ____
Solution: 2.05

Problem: Reported log10(IC50), molecule `Cn1ncc2c1OCCN1CC3CCC(CC3)(C1)n1c(nc3cc(F)c(N4CCOCC4)cc31)NC(=O)c1cc-2c(=O)n(C)c1` : ____
Solution: 2.95

Problem: Reported log10(IC50), molecule `Cc1cc2cc(n1)-c1cnn(C)c1OCCN(CC(F)F)CCn1c(nc3ccccc31)NC2=O` : ____
Solution: 0.85

Problem: Reported log10(IC50), molecule `C[C@@H]1CCCOc2c(cnn2C)-c2cc(cn(C)c2=O)C(=O)Nc2nc3ccc4c(c3n2C1)CCN(C)C4` : ____
Solution: 1.30

Problem: Reported log10(IC50), molecule C[C@@H]1CCCOc2c(cnn2C)-c2cc(cn(C)c2=O)C(=O)Nc2nc3ccc(N4CCC(N5CCOCC5)C4)cc3n2C1 (stereo partly drawn) : ____
Solution: 2.00

Problem: Reported log10(IC50), molecule `C[C@@H]1CCCOc2c(cnn2C)-c2cc(cn(C)c2=O)C(=O)Nc2nc3ccc(N4CCC(N5CCN(C)CC5)CC4)cc3n2C1` : ____
Solution: 0.95

Problem: Reported log10(IC50), molecule C[C@@H]1CCCOc2c(cnn2C)-c2cc(cn(C)c2=O)C(=O)Nc2nc3ccc(N4CCC(N(C)C)C(F)C4)cc3n2C1 (stereo partly drawn) : ____
Solution: 0.23

Problem: Reported log10(IC50), molecule `Cn1ncc2c1OCCN1CC3CCC(CC3)(C1)n1c(nc3ccc(N4CCOCC4)cc31)NC(=O)c1cc-2c(=O)n(C)c1` : ____
Solution: 2.56

Problem: Reported log10(IC50), molecule `C[C@@H]1CCCOc2c(cnn2C2CC2)-c2cc(cn(C)c2=O)C(=O)Nc2nc3ccc(N4CCN(C)CC4)cc3n2C1` : ____
Solution: 0.76

Problem: Reported log10(IC50), molecule CN1CCN(c2ccc3c(c2)nc2n3C34CCC(CN(CCOc5c(cnn5C)-c5cc(cn(C)c5=O)C(=O)N2)C3)C4)CC1 (stereo not drawn) [Example A60B] : ____
Solution: 1.64

Problem: Reported log10(IC50), molecule CN1CCC2(CN(c3ccc4nc5n(c4c3)C34CCC(CN(CCOc6c(cnn6C)-c6cc(cn(C)c6=O)C(=O)N5)C3)C4)C2)C(F)(F)C1 (single isomer, unassigned) [Example A91B] : ____
Solution: 0.79

Problem: Reported log10(IC50), molecule Cn1ncc2c1OCCN1CC3CCC(C3)(C1)n1c(nc3ccc(N4CCN(C5COC5)CC4)cc31)NC(=O)c1cc-2c(=O)n(C)c1 (single isomer, unassigned) [Example A71B] : ____
Solution: 0.46

Problem: Reported log10(IC50), molecule Cn1ncc2c1OCCN1CC3CCC(C3)(C1)n1c(nc3ccccc31)NC(=O)c1cc-2c(=O)n(C)c1 (stereo not drawn) [Example A61B] : ____
Solution: 1.23
